Data provenance is patent US6177447A.

# System Name: glucocerebrosidase (Homo sapiens, UniProt P04062)
# Sequence (P04062 40-536): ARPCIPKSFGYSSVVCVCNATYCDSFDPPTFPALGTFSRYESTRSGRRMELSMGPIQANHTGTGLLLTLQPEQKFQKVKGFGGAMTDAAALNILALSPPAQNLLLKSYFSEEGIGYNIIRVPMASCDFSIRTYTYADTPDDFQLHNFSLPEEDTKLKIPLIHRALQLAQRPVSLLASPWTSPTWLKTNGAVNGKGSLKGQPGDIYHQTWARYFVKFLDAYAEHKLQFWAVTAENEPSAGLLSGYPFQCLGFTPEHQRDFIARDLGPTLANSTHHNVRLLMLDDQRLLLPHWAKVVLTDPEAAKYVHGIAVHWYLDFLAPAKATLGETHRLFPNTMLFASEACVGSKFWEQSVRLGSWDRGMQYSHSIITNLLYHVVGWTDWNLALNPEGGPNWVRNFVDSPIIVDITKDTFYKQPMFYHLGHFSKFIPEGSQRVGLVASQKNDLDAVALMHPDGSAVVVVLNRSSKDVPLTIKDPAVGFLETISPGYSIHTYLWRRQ
# Assay: conduritol B-epoxide inhibitable glucocerebrosidase activity in membrane fraction from human spleen
# Type: biochemical
Measured Attribute: IC50 (nM)

[
  {
    "Cpd Smiles": "CC(C)CCC[C@@H](C)[C@H]1CC[C@H]2[C@@H]3CC=C4C[C@@H](OCCCCCN5C[C@H](O)[C@@H](O)[C@H](O)[C@H]5CO)CC[C@]4(C)[C@H]3CC[C@]12C",
    "Measurement Unit": "nM",
    "Observed Measurement": 700
  }
]

====

# System Name: glucosylceramidase (Homo sapiens, UniProt Q9HCG7)
# Sequence (Q9HCG7 whole entry): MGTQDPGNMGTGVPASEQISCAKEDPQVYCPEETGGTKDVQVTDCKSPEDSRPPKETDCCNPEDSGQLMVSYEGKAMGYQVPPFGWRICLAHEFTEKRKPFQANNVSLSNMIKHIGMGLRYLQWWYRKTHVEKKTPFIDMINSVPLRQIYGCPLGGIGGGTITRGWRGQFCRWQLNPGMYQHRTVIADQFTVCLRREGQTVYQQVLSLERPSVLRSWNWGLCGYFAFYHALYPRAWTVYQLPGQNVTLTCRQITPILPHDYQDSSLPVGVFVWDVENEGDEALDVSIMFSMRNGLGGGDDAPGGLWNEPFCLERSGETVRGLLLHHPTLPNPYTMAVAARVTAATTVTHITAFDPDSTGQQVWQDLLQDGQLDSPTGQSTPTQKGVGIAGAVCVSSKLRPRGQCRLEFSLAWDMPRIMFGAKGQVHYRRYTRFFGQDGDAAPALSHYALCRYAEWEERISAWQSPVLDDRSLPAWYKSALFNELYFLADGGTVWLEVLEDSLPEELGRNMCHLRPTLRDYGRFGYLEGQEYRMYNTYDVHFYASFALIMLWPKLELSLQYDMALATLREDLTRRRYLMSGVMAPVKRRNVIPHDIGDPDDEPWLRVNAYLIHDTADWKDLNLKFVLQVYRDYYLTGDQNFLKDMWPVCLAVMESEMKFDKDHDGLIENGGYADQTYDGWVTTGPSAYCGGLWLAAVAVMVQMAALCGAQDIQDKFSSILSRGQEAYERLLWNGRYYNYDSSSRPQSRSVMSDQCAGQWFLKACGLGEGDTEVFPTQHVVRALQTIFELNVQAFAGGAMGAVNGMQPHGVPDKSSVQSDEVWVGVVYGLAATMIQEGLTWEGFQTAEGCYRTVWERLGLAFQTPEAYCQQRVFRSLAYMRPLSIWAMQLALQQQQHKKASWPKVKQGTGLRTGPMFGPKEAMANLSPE
# Assay: glucosylceramidase activity towards 4MU-b-glucoside in conduritol B-epoxide pre-treated membrane suspension from human spleen
pIC50: −log10 of the molar value.
Measured Attribute: pIC50

[
  {
    "Molecule": "CC(C)CCC[C@@H](C)[C@H]1CC[C@H]2[C@@H]3CC=C4C[C@@H](OCCCCCN5C[C@H](O)[C@@H](O)[C@H](O)[C@H]5CO)CC[C@]4(C)[C@H]3CC[C@]12C [P24]",
    "Measured Attribute": "pIC50",
    "Observed Measurement": 7.00
  }
]

====

# System Name: glucocerebrosidase (Homo sapiens)
# Sequence (P04062 40-536): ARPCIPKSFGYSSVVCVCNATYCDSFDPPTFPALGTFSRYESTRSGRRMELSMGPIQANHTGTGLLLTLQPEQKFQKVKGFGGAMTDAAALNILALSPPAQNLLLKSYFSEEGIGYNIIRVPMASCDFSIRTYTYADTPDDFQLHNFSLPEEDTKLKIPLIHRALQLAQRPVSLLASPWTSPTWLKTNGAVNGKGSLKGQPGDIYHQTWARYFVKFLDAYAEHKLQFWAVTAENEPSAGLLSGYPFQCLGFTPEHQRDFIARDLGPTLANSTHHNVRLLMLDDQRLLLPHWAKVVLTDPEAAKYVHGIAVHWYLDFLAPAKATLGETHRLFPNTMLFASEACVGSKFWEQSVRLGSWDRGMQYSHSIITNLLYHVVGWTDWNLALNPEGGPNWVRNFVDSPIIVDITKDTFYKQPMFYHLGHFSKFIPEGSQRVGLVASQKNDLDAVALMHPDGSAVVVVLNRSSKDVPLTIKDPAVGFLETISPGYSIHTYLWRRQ
Ki overview

[
  {
    "Compound": "CCCN1C[C@H](O)[C@@H](O)[C@H](O)[C@H]1CO [PROPYLDNJ, N-propyl DNJ, reference compound]",
    "Censoring Sign": "=",
    "Ki / µM": 332
  },
  {
    "Compound": "O=C(CCCC(=O)N1C[C@H](O)[C@@H](O)[C@H](O)[C@H]1CO)OC12CC3CC(CC(C3)C1)C2",
    "Censoring Sign": "=",
    "Ki / µM": 4.1
  },
  {
    "Compound": "CC(C)CCC[C@@H](C)[C@H]1CC[C@H]2[C@@H]3CC=C4C[C@@H](OC(=O)CCCC(=O)N5C[C@H](O)[C@@H](O)[C@H](O)[C@H]5CO)CC[C@]4(C)[C@H]3CC[C@]12C",
    "Censoring Sign": ">",
    "Ki / µM": 100
  },
  {
    "Compound": "CCCCCN1C[C@H](O)[C@@H](O)[C@H](O)[C@H]1CO [PENTYLDNJ, N-pentyl DNJ, reference compound]",
    "Censoring Sign": "=",
    "Ki / µM": 8.5
  },
  {
    "Compound": "CC(C)CCC[C@@H](C)[C@H]1CC[C@H]2[C@@H]3CC[C@H]4C[C@@H](OC(=O)CCCC(=O)N5C[C@H](O)[C@@H](O)[C@H](O)[C@H]5CO)CC[C@]4(C)[C@H]3CC[C@]12C",
    "Censoring Sign": ">",
    "Ki / µM": 100
  },
  {
    "Compound": "CC(C)CCC[C@@H](C)[C@H]1CC[C@H]2[C@@H]3CC=C4C[C@@H](OCCCCCN5C[C@H](O)[C@@H](O)[C@H](O)[C@H]5CO)CC[C@]4(C)[C@H]3CC[C@]12C",
    "Censoring Sign": "=",
    "Ki / µM": 0.77
  },
  {
    "Compound": "CCCCC(=O)N1C[C@H](O)[C@@H](O)[C@H](O)[C@H]1CO [PENTANOYLDNJ, N-pentanoyl DNJ, reference compound]",
    "Censoring Sign": "=",
    "Ki / µM": 83
  },
  {
    "Compound": "O=C(CCCC(=O)N1C[C@H](O)[C@@H](O)[C@H](O)[C@H]1CO)Oc1cc2ccccc2c2ccccc12",
    "Censoring Sign": "=",
    "Ki / µM": 0.44
  }
]

====

# System Name: glucosylceramidase (Homo sapiens)
# Assay: glucosylceramidase activity towards 4MU-b-glucoside in conduritol B-epoxide pre-treated membrane suspension from human spleen
# Run Parameters: read-out: apparent Ki GLUCOSYLCERAMIDASE; membrane suspension, 4MU-b-glucoside, pH 5.2; competitive inhibition assumed
Measured Attribute: Ki (µM)

[
  {
    "Cpd Smiles": "O=C(CCCC(=O)N1C[C@H](O)[C@@H](O)[C@H](O)[C@H]1CO)OC12CC3CC(CC(C3)C1)C2",
    "System Name": "glucosylceramidase (Homo sapiens)",
    "Measured Attribute": "Ki",
    "Measurement Unit": "µM",
    "Censoring Sign": "=",
    "Observed Measurement": 306
  },
  {
    "Cpd Smiles": "CC(C)CCC[C@@H](C)[C@H]1CC[C@H]2[C@@H]3CC=C4C[C@@H](OC(=O)CCCC(=O)N5C[C@H](O)[C@@H](O)[C@H](O)[C@H]5CO)CC[C@]4(C)[C@H]3CC[C@]12C",
    "System Name": "glucosylceramidase (Homo sapiens)",
    "Measured Attribute": "Ki",
    "Measurement Unit": "µM",
    "Censoring Sign": ">",
    "Observed Measurement": 100
  },
  {
    "Cpd Smiles": "CC(C)CCC[C@@H](C)[C@H]1CC[C@H]2[C@@H]3CC[C@H]4C[C@@H](OC(=O)CCCC(=O)N5C[C@H](O)[C@@H](O)[C@H](O)[C@H]5CO)CC[C@]4(C)[C@H]3CC[C@]12C",
    "System Name": "glucosylceramidase (Homo sapiens)",
    "Measured Attribute": "Ki",
    "Measurement Unit": "µM",
    "Censoring Sign": ">",
    "Observed Measurement": 100
  },
  {
    "Cpd Smiles": "O=C(CCCC(=O)N1C[C@H](O)[C@@H](O)[C@H](O)[C@H]1CO)OCC12CC3CC(CC(C3)C1)C2",
    "System Name": "glucosylceramidase (Homo sapiens)",
    "Measured Attribute": "Ki",
    "Measurement Unit": "µM",
    "Censoring Sign": "=",
    "Observed Measurement": 461
  }
]

====

# System Name: UniProtKB P10253
# Assay: purified lysosomal a-glucosidase activity towards 4MU-a-glucoside
# Assay type: biochemical
# Run Parameters: 4MU-a-glucoside, pH 4.0; read-out: apparent Ki A-GLUCOSIDASE
Measured Ki values are reported for all entries that follow.

[
  {
    "Compound": "CCCCC(=O)N1C[C@H](O)[C@@H](O)[C@H](O)[C@H]1CO [PENTANOYLDNJ, N-pentanoyl DNJ, reference compound]",
    "Ki": "2.39 µM"
  },
  {
    "Compound": "CC(C)CCC[C@@H](C)[C@H]1CC[C@H]2[C@@H]3CC=C4C[C@@H](OC(=O)CCCC(=O)N5C[C@H](O)[C@@H](O)[C@H](O)[C@H]5CO)CC[C@]4(C)[C@H]3CC[C@]12C [P9]",
    "Ki": "> 100 µM"
  },
  {
    "Compound": "CC(C)CCC[C@@H](C)[C@H]1CC[C@H]2[C@@H]3CC[C@H]4C[C@@H](OC(=O)CCCC(=O)N5C[C@H](O)[C@@H](O)[C@H](O)[C@H]5CO)CC[C@]4(C)[C@H]3CC[C@]12C [P13]",
    "Ki": "> 100 µM"
  },
  {
    "Compound": "CC(C)CCC[C@@H](C)[C@H]1CC[C@H]2[C@@H]3CC=C4C[C@@H](OCCCCCN5C[C@H](O)[C@@H](O)[C@H](O)[C@H]5CO)CC[C@]4(C)[C@H]3CC[C@]12C [P24]",
    "Ki": "7.2 µM"
  },
  {
    "Compound": "O=C(CCCC(=O)N1C[C@H](O)[C@@H](O)[C@H](O)[C@H]1CO)OC12CC3CC(CC(C3)C1)C2 [P11]",
    "Ki": "> 100 µM"
  }
]
